// data source = patent US7138361B2

Tested on: morning glory (Ipomoea hederacea)
Experiment: Test B postemergence
Format: in vivo
Conditions: Rate 125 g/ha, scale 0 to 100, 0 no effect, 100 complete control
Method: […] At the same time, plants selected from these crop and weed species and also blackgrass (Alopecurus myosuroides), wheat (Triticum aestivum) and wild oat (Avena fatua) were treated with postemergence applications of test chemicals formulated in the same manner. […] Treated plants and controls were maintained in a greenhouse for 13 to 15 days, after which time all species were compared to controls and visually evaluated. […]
For each entry below, report its Plant response rating, Morningglory value.

Respectfully, I request Plant response rating, Morningglory for each entry included below.
1. CC(C)(C)c1ccn(C2OCN(c3cccc(OC(F)F)c3)C2=O)n1 (centres unmarked)
2. CCCCC(CCCC)c1ccn(C2SCN(c3cccc(OC(F)(F)F)c3)C2=O)n1 (centres unmarked)
3. COc1cc(C)nc(N2CCC(n3ccc(C(C)(C)C)n3)C2=O)n1 (centres unmarked)

Reply |
1. 0
2. 0
3. 0
